Here, each record is paired with measured pIC50 data.
- study target: UniProt P23975
- Sequence (P23975 whole entry): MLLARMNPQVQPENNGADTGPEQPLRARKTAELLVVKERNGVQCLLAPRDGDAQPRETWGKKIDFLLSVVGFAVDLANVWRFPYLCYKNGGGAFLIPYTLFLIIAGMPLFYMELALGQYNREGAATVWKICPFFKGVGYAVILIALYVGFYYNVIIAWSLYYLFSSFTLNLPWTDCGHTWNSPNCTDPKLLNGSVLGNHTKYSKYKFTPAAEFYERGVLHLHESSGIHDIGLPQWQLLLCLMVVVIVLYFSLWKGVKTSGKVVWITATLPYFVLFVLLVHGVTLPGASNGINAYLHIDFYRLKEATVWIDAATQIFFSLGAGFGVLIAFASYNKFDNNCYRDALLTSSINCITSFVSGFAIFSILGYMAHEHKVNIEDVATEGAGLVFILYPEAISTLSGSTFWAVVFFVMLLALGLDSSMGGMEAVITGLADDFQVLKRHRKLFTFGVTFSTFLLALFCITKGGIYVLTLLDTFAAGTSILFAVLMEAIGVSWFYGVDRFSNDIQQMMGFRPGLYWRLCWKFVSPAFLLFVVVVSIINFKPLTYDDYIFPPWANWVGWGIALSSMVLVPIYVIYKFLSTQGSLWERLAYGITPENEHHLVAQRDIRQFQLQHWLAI
- measurement description: cell-based
- particulars: read-out: Inhibition of [3H]neurotransmitter uptake IC50 ± sem, hNET [3H]NE; HEK-hNET cells
Expect pIC50 as a plain number equal to -log10 of the molar concentration.

Examples with answers:
CCCCC(NCC)C(=O)c1ccccc1 (stereo not drawn)
7.01
CCCC(C(=O)c1ccc(Cl)cc1)N1CCCC1 (stereo not drawn)
7.54

Challenge: Recorded pIC50 for CC(C(=O)c1ccc2c(c1)OCO2)N(C)C (stereo not drawn) with UniProt P23975, please?
Response given: 5.38

Challenge: Recorded pIC50 for CCCC(C(=O)c1ccc2c(c1)OCO2)N(C)C (stereo not drawn) with UniProt P23975, please?
Response given: 6.67

Challenge: Recorded pIC50 for CCCC(NCC)C(=O)c1ccc(C)cc1 (stereo not drawn) with UniProt P23975, please?
Response given: 7.08

Challenge: Recorded pIC50 for CCNC(C)C(=O)c1ccc(Cl)cc1 (stereo not drawn) with UniProt P23975, please?
Response given: 5.76

Challenge: Recorded pIC50 for CCC(C(=O)c1ccc2c(c1)OCO2)N(C)C (stereo not drawn) with UniProt P23975, please?
Response given: 6.03
